target: PIK3CB;PIK3CG;PIK3CD;PIK3CA (human) (UniProt P48736); experiment: Enzyme Assay
Result type: IC50 (nM)
Answers are plain numbers, in nM.

# Compound, Result type, Unit name, Observed value
records = [
    ("O=C(c1nn(-c2cccc(N3CCOCC3)c2)c2c1CS(=O)(=O)c1ccccc1-2)N1CCOCC1", "IC50", "nM", 673),
    ("O=C(c1nn(-c2cccc(CN3CCCCC3)c2)c2c1CS(=O)(=O)c1ccccc1-2)N1CCOCC1", "IC50", "nM", 394),
    ("O=C(c1cccc(-n2nc(C(=O)N3CCOCC3)c3c2-c2ccccc2S(=O)(=O)C3)c1)N1CCC(O)CC1", "IC50", "nM", 371),
    ("O=C(c1nn(-c2ccc(CN3CCC(F)CC3)cc2)c2c1CS(=O)(=O)c1ccccc1-2)N1CCOCC1", "IC50", "nM", 247),
    ("O=C(c1nn(-c2cccc(CN3CCCC(F)(F)C3)c2)c2c1CS(=O)(=O)c1ccccc1-2)N1CCOCC1", "IC50", "nM", 1540),
    ("COCCNCc1ccc(-n2nc(C(=O)N3CCOCC3)c3c2-c2ccccc2S(=O)(=O)C3)cc1", "IC50", "nM", 164),
    ("COCCCN1CCCC(n2nc(C(=O)N3CCOCC3)c3c2-c2ccccc2S(=O)(=O)C3)C1 (stereo not drawn)", "IC50", "nM", 140),
]

Field: next compound
Q: Sample `N#Cc1cccc(-n2nc(C(=O)N3CCOCC3)c3c2-c2ccccc2S(=O)(=O)C3)c1` — what was its IC50?
Result: 376

###

Can you tell me pIC50 for the items I'm about to list?
target: PIK3CB;PIK3CG;PIK3CD;PIK3CA (human); experiment: Enzyme Assay
Answers are plain numbers, as −log10 of the molar value.

Please report pIC50 for every entry that follows.
1. O=C(c1nn(-c2ccc3c(c2)OCCO3)c2c1CS(=O)(=O)c1ccccc1-2)N1CCOCC1
2. CC(=O)Nc1ccc2c(c1)-c1c(c(C(=O)N3CCOCC3)nn1-c1ccccc1)CS2(=O)=O
3. CS(=O)(=O)C1CCN(Cc2ccc(-n3nc(C(=O)N4CCOCC4)c4c3-c3ccccc3S(=O)(=O)C4)cc2)C1 (centres undefined)
4. O=C(c1nn([C@H]2CCCN(CCN3CCOCC3)C2)c2c1CS(=O)(=O)c1cc(F)ccc1-2)N1CCOCC1

Result:
1. 6.17
2. 6.06
3. 6.04
4. 7.85

###

biological target: UniProt P48736; assay: Enzyme Assay
Label key: true means IC50 under 900 nM; false means IC50 of 900 nM or more.

Past entries and their recorded results:
# Compound, Measured on, Qualitative label
records = [
    ("O=C(c1nn(-c2cccc(OCCn3cccn3)c2)c2c1CS(=O)(=O)c1ccccc1-2)N1CCOCC1", "UniProt P48736", "true"),
    ("O=C(c1nn(-c2ccccc2)c2c1CS(=O)(=O)c1ccccc1-2)N1CCCOCC1", "UniProt P48736", "false"),
    ("O=C(c1nn(-c2ccc(CNC3CCOCC3)cc2)c2c1CS(=O)(=O)c1ccccc1-2)N1CCOCC1", "UniProt P48736", "true"),
]

Q: Bench note: check whether `O=C(c1nn(-c2ccccc2)c2c1CS(=O)(=O)c1ccc(F)cc1-2)N1CCOCC1` shows IC50 below 900 nM
Result: false

Q: Bench note: check whether `CCn1nc(C(=O)N2CCOCC2)c2c1-c1ccccc1S(=O)(=O)C2` shows IC50 below 900 nM
Result: true

Q: Bench note: check whether `CCc1noc(Cn2nc(C(=O)N3CCOCC3)c3c2-c2ccccc2S(=O)(=O)C3)n1` shows IC50 below 900 nM
Result: false

Q: Bench note: check whether `COCCOc1cccc(-n2nc(C(=O)N3CCOCC3)c3c2-c2ccccc2S(=O)(=O)C3)c1` shows IC50 below 900 nM
Result: true

Q: Bench note: check whether `O=C(c1nn(-c2ccccc2)c2c1CS(=O)(=O)c1ccncc1-2)N1CCOCC1` shows IC50 below 900 nM
Result: false
